tested on: MOLT-4 leukemia; assay: NCI-60 one-dose screen, 48 h (100 = growth as untreated, 0 = no growth, -100 = all killed); conditions: 10 µM unless noted
This is part of a sample that, as a whole, favours compounds with a hit. Of some 83,000 tested, about 20% had one in any assay.
Quick list: growth per entry.
assay-endpoint: growth (%)

[[record]]
compound = "O=c1c2cccc3c(N4CCCC4)ccc(c32)c2nc3ccccc3n12"
endpoint_result = 2.57

[[record]]
compound = "O=S(=O)(NCCNc1nccc(-c2c(-c3ccc(F)c(O)c3)nc3occn23)n1)c1ccc(Cl)cc1"
endpoint_result = 84.1

[[record]]
compound = "COc1ccc(/C=N\\Nc2nc(SCCC(C)C)nc(-c3ccc(OC)cc3)c2C#N)cc1"
endpoint_result = 65.1

[[record]]
compound = "Cc1cc(N2CCCCC2)cc(C)c1-c1csc(NC(=O)c2ccncc2)n1"
endpoint_result = 43.7

[[record]]
compound = "COC(=O)c1nc(-c2ccccc2)oc1S(=O)(=O)Cc1ccccc1"
endpoint_result = -9.29


* * *

System: MDA-MB-435 melanoma
Assay: NCI-60 one-dose screen, 48 h
Conditions: 10 µM unless noted
Description: Growth inhibition of the MDA-MB-435 human Melanoma tumor cell line is measured as a screen for anti-cancer activity. Cells are grown in 96 well plates and exposed to the test compound for 48 hours. Compounds are tested at a single concentration, which is 10^-5 M for most compounds. The reported endpoint is percent growth (GI% or GIPRCNT), where numbers from 0 - 100% represent growth inhibition, and numbers from -100% - 0 represent cell death. […]
About 83,000 compounds went through this panel and 20% of them were active in at least one assay; those are over-represented in the sample as a whole. Activity calls are given as the source filed them. The calls were made as follows: active = growth percent below 10; inactive = the rest.
Classes used: yes (1) = active, no (0) = inactive

[[record]]
molecule = "CSc1nnc(-c2cc3c([nH]c4ccccc43)c(-c3cccc(O)c3)n2)n1-c1ccccc1"
category_label = "yes (1)"

[[record]]
molecule = "O=C(c1ccncc1)N1N=C(c2ccc(Cl)cc2)C[C@H]1c1cn(-c2ccccc2)nc1-c1ccccc1"
category_label = "no (0)"

[[record]]
molecule = "COCCNC(=O)Nc1ccc2nc(-c3cccs3)c(-c3cccs3)nc2c1"
category_label = "no (0)"

[[record]]
molecule = "N#C/C(=C\\c1c(-c2ccccc2)[nH]c2ccccc12)C(N)=O"
category_label = "no (0)"

[[record]]
molecule = "CCn1cc(C(=O)O)c(=O)c2cc(F)c(N3CCN(CC(=O)Nc4ccc(S(=O)(=O)Nc5nccc(C)n5)cc4)C(C)C3)c(F)c21 (configuration not stated)"
category_label = "no (0)"

[[record]]
molecule = "Cc1cc(=O)oc2cc(OCc3nn4c(Nc5nc6ccccc6s5)c(-c5ccccc5)nc4s3)ccc12"
category_label = "no (0)"

[[record]]
molecule = "CCN(CC)CCCCCNc1cc(OC(=O)c2ccc(Cl)cc2)cc2cccnc12"
category_label = "no (0)"


* * *

tested on: RPMI-8226 leukemia; test: NCI-60 one-dose screen, 48 h; details: 10 µM unless noted
This is part of a sample that, as a whole, favours compounds with a hit. Of some 83,000 tested, about 20% had one in any assay. Active and inactive are the calls of the source. Rule for the calls: active = growth percent below 10; inactive = the rest.
Outcome codes: active, inactive

[[record]]
molecule = "Cc1ccc2c(n1)C(=O)C(Br)=C(CC(C)C)C2=O"
category_label = "inactive"

[[record]]
molecule = "COc1cc(/C=C2/C=C(c3ccccc3)N(CCc3ccc(S(N)(=O)=O)cc3)C2=O)cc(OC)c1OC"
category_label = "inactive"

[[record]]
molecule = "C#CCOc1cccc(Nc2ncnc3cc(NC(=O)C=C)ccc23)c1"
category_label = "inactive"

[[record]]
molecule = "O=C(c1nn(-c2ccccc2)c2c1CC(NCc1ccc(F)cc1)CC2)N1CCCCC1 (stereo not given)"
category_label = "inactive"

[[record]]
molecule = "COc1ccc(C(=O)N2c3ccccc3Sc3ccccc32)c(OC)c1"
category_label = "inactive"

[[record]]
molecule = "O=C1C(Cl)=C(Nc2ccc(S(=O)(=O)N3CCOCC3)cc2)C(=O)c2ccccc21"
category_label = "inactive"

[[record]]
molecule = "Cn1cc(C(=O)c2nc(-c3c[nH]c4ccccc34)no2)c2cc(F)ccc21"
category_label = "inactive"

[[record]]
molecule = "C#COc1cccc(Nc2c(C#N)cnc3ncc(NC(=O)CCl)cc23)c1"
category_label = "active"

[[record]]
molecule = "CCCCCCCCCCCCCCCCOCCCOP(=O)(O)C1CCCN(O)C1=O (stereo not given)"
category_label = "inactive"

[[record]]
molecule = "CC1=NC2=Nn3c(c4cnn(-c5ccccc5)c4n/c3=N\\N)NN2C(c2ccccc2)=C1"
category_label = "inactive"

[[record]]
molecule = "C=C(C)[C@@H]1CC[C@]2(CO)CC[C@]3(C)[C@H](CC[C@@H]4[C@@]5(C)CC[C@H](NCO)C(C)(C)[C@@H]5CC[C@]43C)[C@@H]12"
category_label = "active"

[[record]]
molecule = "CSc1nnc(-c2cc3c([nH]c4ccccc43)c(-c3cccc(O)c3)n2)n1-c1ccccc1"
category_label = "inactive"

[[record]]
molecule = "Cc1cc(C(=O)O)c(C)n1-c1cccc(C(=O)O)c1"
category_label = "inactive"

[[record]]
molecule = "N#Cc1ccc(O)c(C2=NCC(c3cccc(Oc4ccccc4)c3)O2)c1 (stereo not given)"
category_label = "inactive"

[[record]]
molecule = "Cc1ccc(NC(=O)Cn2cc(CN3CCN(c4ccnc5cc(Cl)ccc45)CC3)nn2)cc1"
category_label = "inactive"

[[record]]
molecule = "COc1ccc(C(=O)Nc2cccc(-c3cc(=O)c4c(OC)c(OC)c(OC)cc4o3)c2)cc1"
category_label = "inactive"

[[record]]
molecule = "CCNCCNc1cc(-c2ccc(C(F)(F)F)cc2)c(C#N)c2nc3ccccc3n12"
category_label = "active"

[[record]]
molecule = "O=C1/C(=C/c2ccccc2Br)COc2ccc(O)cc21"
category_label = "active"

[[record]]
molecule = "CN(C)CCNC(=O)c1cc2c3cc(Cl)ccc3[nH]c2c2ncccc12"
category_label = "active"

[[record]]
molecule = "CCN(CC)S(=O)(=O)c1ccc(S(=O)(=O)N2CCC[C@@H](C(=O)N3CCN(c4nc(C(C)C)no4)CC3)C2)cc1"
category_label = "inactive"


Value source: PubChem BioAssay (NCI)
